The reported numbers originate from patent US20240099298A1.

- study-system: rGABARAP^Y174A (Frankliniella occidentalis)
- Sequence (A0A6J1T1Q2 entry or part of it, stated change not applied): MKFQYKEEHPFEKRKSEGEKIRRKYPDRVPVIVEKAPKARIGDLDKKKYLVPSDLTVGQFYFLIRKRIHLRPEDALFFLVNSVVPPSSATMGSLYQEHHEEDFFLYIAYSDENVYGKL
- measurement-protocol: MST binding to rGABARAP mutant
- assay-conditions: read-out: Kd value, MST
experimental-endpoint: pKd
Conceptually, pKd converts a concentration in mol/L into minus its log10.

Some solved cases for reference:
compound=C/C=C/c1ccc(OC)cc1 assay_result=4.39
compound="C=CC(C)(O)CCC=C(C)C (stereo not drawn)" assay_result=4.79

Name the recorded pKd for COc1cccc2c1cc([N+](=O)[O-])c1c(C(=O)O)cc3c(c12)OCO3 [Aristolochic acid A, reference compound] .
3.80

====

- Tested on: Aedes aegypti (mosquito)
- measurement-protocol: Median knockdown concentration (KC50) test, mosquito
- Assay type: in vivo
- assay-conditions: 10 Minutes
- From the text: All treatments and controls were in triplicate. Knockdown Activity of Monoterpenes.
# KC50 (fiducial limits) per record follows

Some solved cases for reference:
compound="C/C=C/c1ccc(OC)cc1 [trans-Anethole]" study_system="Aedes aegypti (mosquito)" assay_result=">8.1 µg/mL"
compound=C=CCc1ccc(OC)cc1 study_system="Aedes aegypti (mosquito)" assay_result=">8.1 µg/mL"
compound=Cc1ccc(C(C)C)cc1O study_system="Aedes aegypti (mosquito)" assay_result=">243 µg/mL"

Then there is this compound:
Name the recorded KC50 (fiducial limits) for CC(C)=C1CC[C@@H](C)CC1=O [(+)-Pulegone] .
19.6(8.41-35.5) μg/cm^3
